The values you see were collected from paper PMC11429909.

Test system: human cord blood CD34+ cells
Experiment: Bone marrow stem cell (hematopoietic trilineage) colony formation assay
Type: cell-based
Details: normal bone marrow; compound at 40 µM; 14 days; N = 2
Description: Human hematopoietic stem cell trilineage colony formation assays were performed as previously described by us. […] At eight days, colonies (i.e., groups of ≥10 cells) were counted. […] The mean number of colonies was then determined and expressed as the percentage of controls. The effect of each compound on inhibiting the growth of cancer cells relative to its toxic effects on normal bone marrow was evaluated. […]
# Lookup of reported Mean Number of Colonies, % of Control, 14 days keyed by entry

smilesInput	result
O=C(Cn1c(=O)oc2ccccc21)N1CCn2c1nc1ccccc12	87 % of Control

Query :: Consider the compound Cc1nnsc1C(=O)OCCCn1c(=O)[nH]c2ccccc21 and give its recorded Mean Number of Colonies, % of Control, 14 days.
Result :: 93 % of Control

Query :: Consider the compound O=C(Cc1n[nH]c(=O)c2ccccc12)Nn1cnc2ccccc21 and give its recorded Mean Number of Colonies, % of Control, 14 days.
Result :: 103 % of Control

Query :: Consider the compound O=C(CCc1c[nH]c2ccccc12)N1CCSc2ccccc21 and give its recorded Mean Number of Colonies, % of Control, 14 days.
Result :: 101 % of Control

Query :: Consider the compound Cc1[nH]c(=O)[nH]c1C(=O)CCCCC(=O)O and give its recorded Mean Number of Colonies, % of Control, 14 days.
Result :: 114 % of Control
